I'd appreciate it if you could supply IC50 values for the items below.
Express it in nM; write the number only.

Per the reported LRRK2 wild type enzyme (Homo sapiens) data, C[C@@H]1C[C@H](n2c(CC(=O)Nc3ccon3)nc3cnc4ccc(Cl)cc4c32)CCO1 has IC50 of 0.507

Per the reported LRRK2 wild type enzyme (Homo sapiens) data, C[C@@H]1C[C@H](n2c(CC(=O)Nc3ccncc3)nc3cnc4ccc(C#N)cc4c32)CCO1 has IC50 of 0.492

Per the reported LRRK2 wild type enzyme (Homo sapiens) data, C[C@@H]1C[C@H](n2c(CN3CCC(C(=O)O)C3)nc3cnc4ccc(C#N)cc4c32)CCO1 (some centres unmarked) has IC50 of 34.2

Per the reported LRRK2 wild type enzyme (Homo sapiens) data, C[C@@H]1C[C@H](n2c(CC(=O)Nc3ccn(C)c(=O)c3)nc3cnc4ccc(Cl)cc4c32)CCO1 has IC50 of 0.331

Per the reported LRRK2 wild type enzyme (Homo sapiens) data, C[C@@H]1C[C@H](n2c(C3CC(=O)N(CC4CC4)C3)nc3cnc4ccc(C#N)cc4c32)CCO1 (mixture of isomers) has IC50 of 2.28

Per the reported LRRK2 wild type enzyme (Homo sapiens) data, C[C@@H]1C[C@H](n2c(C3CC(=O)N(c4cnn(C)c4)C3)nc3cnc4ccc(C#N)cc4c32)CCO1 (mixture of isomers) has IC50 of 1.06

Per the reported LRRK2 wild type enzyme (Homo sapiens) data, C[C@@H]1C[C@H](n2c(C3CC(=O)N(c4ccnn4C)C3)nc3cnc4ccc(C#N)cc4c32)CCO1 (some centres unmarked) has IC50 of 1.98

Per the reported LRRK2 wild type enzyme (Homo sapiens) data, C[C@@H]1C[C@H](n2c(CC(=O)Nc3cc(C(F)(F)F)on3)nc3cnc4ccc(C#N)cc4c32)CCO1 has IC50 of 1.13

Per the reported LRRK2 wild type enzyme (Homo sapiens) data, C[C@@H]1C[C@H](n2c(CCC(=O)NCC3CC3)nc3cnc4ccc(C#N)cc4c32)CCO1 has IC50 of 3.11

Per the reported LRRK2 wild type enzyme (Homo sapiens) data, C[C@@H]1C[C@H](n2c(CC(=O)Nc3cnn(C)c3)nc3cnc4ccc(Cl)cc4c32)CCO1 has IC50 of 0.261

Per the reported LRRK2 wild type enzyme (Homo sapiens) data, Cc1nnc(CNC(=O)Cc2nc3cnc4ccc(C#N)cc4c3n2[C@@H]2CCO[C@H](C)C2)o1 has IC50 of 0.451

Per the reported LRRK2 wild type enzyme (Homo sapiens) data, C[C@@H]1C[C@H](n2c(C3CC(=O)N([C@H](C)C4CC4)C3)nc3cnc4ccc(C#N)cc4c32)CCO1 (some centres unmarked) has IC50 of 4.22

Per the reported LRRK2 wild type enzyme (Homo sapiens) data, C[C@@H]1C[C@H](n2c(C3CC(=O)N(Cc4cccnc4)C3)nc3cnc4ccc(C#N)cc4c32)CCO1 (single isomer, unassigned) [Compound 30] has IC50 of 0.567

Per the reported LRRK2 wild type enzyme (Homo sapiens) data, Cc1ccc(NC(=O)Cc2nc3cnc4ccc(C#N)cc4c3n2[C@@H]2CCO[C@H](C)C2)cn1 has IC50 of 0.542

Per the reported LRRK2 wild type enzyme (Homo sapiens) data, C[C@@H]1C[C@H](n2c(CS(=O)(=O)C3CC3)nc3cnc4ccc(C5CC5)cc4c32)CCO1 has IC50 of 16.4

Per the reported LRRK2 wild type enzyme (Homo sapiens) data, C[C@@H]1C[C@H](n2c(C3CC(=O)N(c4ccn(C)n4)C3)nc3cnc4ccc(C#N)cc4c32)CCO1 (some centres unmarked) has IC50 of 2.14

Per the reported LRRK2 wild type enzyme (Homo sapiens) data, C[C@@H]1C[C@H](n2c(C3CC(=O)N(C)C3)nc3cnc4ccc(C#N)cc4c32)CCO1 (mixture of isomers) has IC50 of 3.16

Per the reported LRRK2 wild type enzyme (Homo sapiens) data, C[C@@H]1C[C@H](n2c(CC(=O)Nc3cccn(C)c3=O)nc3cnc4ccc(C#N)cc4c32)CCO1 has IC50 of 0.476

Per the reported LRRK2 wild type enzyme (Homo sapiens) data, COc1ncc(NC(=O)Cc2nc3cnc4ccc(C#N)cc4c3n2[C@@H]2CCO[C@H](C)C2)c(OC)n1 has IC50 of 0.455

Per the reported LRRK2 wild type enzyme (Homo sapiens) data, C[C@@H]1C[C@H](n2c(CC(=O)N(C)CC(F)(F)F)nc3cnc4ccc(C#N)cc4c32)CCO1 has IC50 of 10.5

Per the reported LRRK2 wild type enzyme (Homo sapiens) data, C[C@@H]1C[C@H](n2c(CC(=O)Nc3cnc(C(F)(F)F)nc3)nc3cnc4ccc(C#N)cc4c32)CCO1 has IC50 of 0.66

Per the reported LRRK2 wild type enzyme (Homo sapiens) data, Cc1nn(C)c(Cl)c1NC(=O)Cc1nc2cnc3ccc(C#N)cc3c2n1[C@@H]1CCO[C@H](C)C1 has IC50 of 0.462

Per the reported LRRK2 wild type enzyme (Homo sapiens) data, C[C@@H]1C[C@H](n2c([C@@H]3CCN(C(=O)c4cnn(C)c4)C3)nc3cnc4ccc(C#N)cc4c32)CCO1 has IC50 of 6.71

Per the reported LRRK2 wild type enzyme (Homo sapiens) data, C[C@@H]1C[C@H](n2c(CC(=O)NCC3COC3)nc3cnc4ccc(C#N)cc4c32)CCO1 has IC50 of 0.524

Per the reported LRRK2 wild type enzyme (Homo sapiens) data, C[C@@H]1C[C@H](n2c(CC(=O)Nc3cnccc3O)nc3cnc4ccc(C#N)cc4c32)CCO1 has IC50 of 0.582

Per the reported LRRK2 wild type enzyme (Homo sapiens) data, C[C@@H]1C[C@H](n2c(CC(=O)Nc3cnoc3)nc3cnc4ccc(Cl)cc4c32)CCO1 has IC50 of 0.722

Per the reported LRRK2 wild type enzyme (Homo sapiens) data, C[C@@H]1C[C@H](n2c(CC(=O)N[C@@H]3C[C@@H]3F)nc3cnc4ccc(C#N)cc4c32)CCO1 has IC50 of 0.567

Per the reported LRRK2 wild type enzyme (Homo sapiens) data, C[C@@H]1C[C@H](n2c(CC(=O)NC3(CF)CC3)nc3cnc4ccc(C#N)cc4c32)CCO1 has IC50 of 1.48

Per the reported LRRK2 wild type enzyme (Homo sapiens) data, C[C@@H]1C[C@H](n2c(CC(=O)NCC(C)(C)CO)nc3cnc4ccc(C#N)cc4c32)CCO1 has IC50 of 0.991
